target: human NMUR2 (human, UniProt Q9GZQ4 1-415); assay: cell-based or functional assay
Sequence (Q9GZQ4 whole entry): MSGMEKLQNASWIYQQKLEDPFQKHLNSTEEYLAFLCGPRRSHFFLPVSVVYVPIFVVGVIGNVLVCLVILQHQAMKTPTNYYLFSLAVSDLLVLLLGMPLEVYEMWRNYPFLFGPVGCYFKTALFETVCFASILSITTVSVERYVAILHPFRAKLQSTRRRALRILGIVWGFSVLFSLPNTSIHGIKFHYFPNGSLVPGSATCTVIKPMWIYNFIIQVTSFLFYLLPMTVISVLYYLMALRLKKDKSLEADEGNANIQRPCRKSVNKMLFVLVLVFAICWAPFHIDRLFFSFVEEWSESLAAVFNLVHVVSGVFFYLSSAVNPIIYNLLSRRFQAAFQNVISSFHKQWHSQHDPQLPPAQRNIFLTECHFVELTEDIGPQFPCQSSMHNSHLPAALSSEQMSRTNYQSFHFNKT
Non-standard residues stand in square brackets, D forms with d. No end group written: not given here. hArg = N=C(N)NCCCC[C@H](N)C(=O)O

binder | % activity [%]
FWLFRARN-NH2 [neuromedin U receptor agonist L] | 100
FWLFRP[hArg]N-NH2 (N-terminus assumed; SMILES CC(C)C[C@H](NC(=O)[C@H](Cc1c[nH]c2ccccc12)NC(=O)[C@@H](N)Cc1ccccc1)C(=O)N[C@@H](Cc1ccccc1)C(=O)N[C@@H](CCCNC(=N)N)C(=O)N1CCC[C@H]1C(=O)N[C@@H](CCCCNC(=N)N)C(=O)N[C@@H](CC(N)=O)C(N)=O) [neuromedin U receptor agonist I] | 99
FALFRPRN-NH2 [neuromedin U receptor agonist N] | 100
FWLFRA[hArg]N-NH2 (N-terminus assumed; SMILES CC(C)C[C@H](NC(=O)[C@H](Cc1c[nH]c2ccccc12)NC(=O)[C@@H](N)Cc1ccccc1)C(=O)N[C@@H](Cc1ccccc1)C(=O)N[C@@H](CCCNC(=N)N)C(=O)N[C@@H](C)C(=O)N[C@@H](CCCCNC(=N)N)C(=O)N[C@@H](CC(N)=O)C(N)=O) [neuromedin U receptor agonist J] | 59
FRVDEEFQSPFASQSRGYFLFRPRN-NH2 (also called hNMU-25; native hNMU) [human NMU-25] | 100
